test system: Caco-2; assay: cell viability relative to DMSO; higher = less toxic; settings: 72 h; 10000 nM
# Lookup of reported cell viability keyed by entry
quantityMeasured: cell viability (%)

>  <compound>
Oc1ccc2ccccc2c1SSc1c(O)ccc2ccccc12

>  <targetOfAssay>
Caco-2

>  <unitAnnotation>
%

>  <reported>
92.9

$$$$
>  <compound>
Nc1ncc(Cc2ccc(Br)cc2)s1

>  <targetOfAssay>
Caco-2

>  <unitAnnotation>
%

>  <reported>
96.7

$$$$
>  <compound>
COc1cc2c(cc1F)C(c1ccccc1Cl)=Nc1c(n[nH]c1C)N2

>  <targetOfAssay>
Caco-2

>  <unitAnnotation>
%

>  <reported>
76.1

$$$$
>  <compound>
CCN(CC)CCOCCOC(=O)C1(c2ccccc2)CCCC1

>  <targetOfAssay>
Caco-2

>  <unitAnnotation>
%

>  <reported>
91.1

$$$$
>  <compound>
O=NN(CCCl)C(=O)NC1CCCCC1

>  <targetOfAssay>
Caco-2

>  <unitAnnotation>
%

>  <reported>
59

$$$$
>  <compound>
Cc1ccc(OCCSc2ncccn2)c(Br)c1

>  <targetOfAssay>
Caco-2

>  <unitAnnotation>
%

>  <reported>
102

$$$$
>  <compound>
CC1=C(/C=C/C(=C/C=C/C(C)=C/C(=O)O)c2ccc(C)cc2)C(C)(C)CCC1

>  <targetOfAssay>
Caco-2

>  <unitAnnotation>
%

>  <reported>
97.1

$$$$
>  <compound>
Fc1ccc(Cn2c(NC3CCNCC3)nc3ccccc32)cc1

>  <targetOfAssay>
Caco-2

>  <unitAnnotation>
%

>  <reported>
73.3

$$$$
>  <compound>
COc1cc(OCc2cccc(-c3ccccc3)c2C)cc(OC)c1CN1CCCC[C@H]1C(=O)O

>  <targetOfAssay>
Caco-2

>  <unitAnnotation>
%

>  <reported>
102

$$$$
>  <compound>
O=C(O)CC[C@H]1CC[C@@](c2cc(F)ccc2F)(S(=O)(=O)c2ccc(Cl)cc2)CC1

>  <targetOfAssay>
Caco-2

>  <unitAnnotation>
%

>  <reported>
99.5

$$$$
>  <compound>
CC(C)[C@H]1c2ccc(F)cc2CC[C@@]1(CCN(C)CCCc1nc2ccccc2[nH]1)OC(=O)C1CC1

>  <targetOfAssay>
Caco-2

>  <unitAnnotation>
%

>  <reported>
4.5

$$$$
>  <compound>
CC1(C)CC(Oc2ccc(-c3ccc(-c4cn[nH]c4)cc3O)nn2)CC(C)(C)N1

>  <targetOfAssay>
Caco-2

>  <unitAnnotation>
%

>  <reported>
72.5

$$$$
>  <compound>
O=C(NCCN1CCC2(CC1)C(=O)NCN2c1cccc(F)c1)c1ccc(F)c(F)c1

>  <targetOfAssay>
Caco-2

>  <unitAnnotation>
%

>  <reported>
89.9

$$$$
>  <compound>
O=C1N=C(NCc2cccs2)S/C1=C\c1ccc2ncccc2c1

>  <targetOfAssay>
Caco-2

>  <unitAnnotation>
%

>  <reported>
74.2

$$$$
>  <compound>
CCC(=O)NC1CCc2cccc(OC)c2C1 (stereo not given)

>  <targetOfAssay>
Caco-2

>  <unitAnnotation>
%

>  <reported>
119

$$$$
>  <compound>
CCS(=O)(=O)N1CCC[C@@H]2CN3CCc4cc(OC)ccc4[C@@H]3C[C@@H]21

>  <targetOfAssay>
Caco-2

>  <unitAnnotation>
%

>  <reported>
91.7

$$$$
>  <compound>
O=C(O)COc1ccc(/C=C2\SC(=O)NC2=O)cc1

>  <targetOfAssay>
Caco-2

>  <unitAnnotation>
%

>  <reported>
102

$$$$
>  <compound>
O=C1OC2(c3ccc(O)cc3Oc3cc(O)ccc32)c2ccccc21

>  <targetOfAssay>
Caco-2

>  <unitAnnotation>
%

>  <reported>
98.3

$$$$
>  <compound>
N=C(N)N/N=C/c1c(Cl)cccc1Cl [guanaben-acetate]

>  <targetOfAssay>
Caco-2

>  <unitAnnotation>
%

>  <reported>
90.7

$$$$
>  <compound>
Cc1ccc(=O)n(-c2ccc(O)cc2)c1

>  <targetOfAssay>
Caco-2

>  <unitAnnotation>
%

>  <reported>
93

$$$$

Cited source for all entries: the supplement of paper PMC13380429
